Entry source: patent US12662465B2

# target_or_test_system: EGFR L858R (Homo sapiens, UniProt P00533, L858R)
# Construct: purchased SignalChem E10-122BG
# Sequence (P00533 25-1210 L858R): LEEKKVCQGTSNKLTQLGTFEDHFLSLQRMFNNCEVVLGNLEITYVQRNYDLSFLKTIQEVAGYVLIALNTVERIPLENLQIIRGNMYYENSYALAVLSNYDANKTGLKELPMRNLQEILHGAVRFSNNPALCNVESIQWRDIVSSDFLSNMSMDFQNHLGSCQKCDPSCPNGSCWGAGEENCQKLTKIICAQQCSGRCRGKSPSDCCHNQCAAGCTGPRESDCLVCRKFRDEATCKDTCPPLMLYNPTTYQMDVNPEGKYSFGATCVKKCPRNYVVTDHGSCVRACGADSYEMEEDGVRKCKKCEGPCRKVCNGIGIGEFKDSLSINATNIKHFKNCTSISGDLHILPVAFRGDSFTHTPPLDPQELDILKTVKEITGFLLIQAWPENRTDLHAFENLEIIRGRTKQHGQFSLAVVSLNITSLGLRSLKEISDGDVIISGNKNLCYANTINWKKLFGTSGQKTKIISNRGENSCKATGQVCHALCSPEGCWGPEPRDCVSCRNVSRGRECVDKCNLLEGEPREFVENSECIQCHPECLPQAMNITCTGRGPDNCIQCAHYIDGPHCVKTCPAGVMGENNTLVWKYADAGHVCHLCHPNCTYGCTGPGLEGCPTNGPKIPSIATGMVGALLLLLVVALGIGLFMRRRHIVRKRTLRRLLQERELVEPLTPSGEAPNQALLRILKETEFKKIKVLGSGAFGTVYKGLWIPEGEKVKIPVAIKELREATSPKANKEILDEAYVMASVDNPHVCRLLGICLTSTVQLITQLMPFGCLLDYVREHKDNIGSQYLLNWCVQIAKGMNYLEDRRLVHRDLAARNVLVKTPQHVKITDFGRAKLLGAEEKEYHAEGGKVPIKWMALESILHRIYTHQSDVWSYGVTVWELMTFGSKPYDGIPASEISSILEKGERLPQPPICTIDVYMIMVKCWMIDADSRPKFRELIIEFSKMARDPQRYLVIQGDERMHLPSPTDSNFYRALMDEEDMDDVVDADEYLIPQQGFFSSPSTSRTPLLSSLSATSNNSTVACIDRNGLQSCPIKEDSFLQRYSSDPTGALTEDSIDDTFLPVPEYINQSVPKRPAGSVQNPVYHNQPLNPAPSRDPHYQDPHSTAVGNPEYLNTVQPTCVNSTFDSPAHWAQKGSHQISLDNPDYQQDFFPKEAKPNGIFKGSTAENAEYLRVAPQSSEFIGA
# experimental_details: Biochemical EGFR inhibition assay (Caliper mobility shift), EGFR L858R
# experimental_context: read-out: Enz EGFR_L858R IC50
property_measured: IC50

# get_value(readout='IC50', item= C[C@@H](Oc1cc(N2CCOC(C)(C)C2)cc2ncnc(Nc3ccc4ncccc4c3F)c12)C1COC1 [Example 60] )
10.1 to 50 nM

Do the same for Cc1cnn(-c2cc(O[C@H](C)CN(C)C)c3c(Nc4ccc5ncccc5c4F)ncnc3c2)c1 [Example 83] please
< 10 nM

Try this compound next: C[C@H](CN(C)C)Oc1cc(-c2cnn(C)c2)cc2ncnc(Nc3ccc4cccnc4c3F)c12 [Example 108]
10.1 to 50 nM

Okay, and CC(CN(C)C)Oc1cc(N2CC3CC(C2)O3)cc2ncnc(Nc3ccc4ncccc4c3)c12 (racemic) [Example 66] ?
10.1 to 50 nM

====

# target_or_test_system: EGFR L858R (Homo sapiens, UniProt P00533, L858R)
# Construct: purchased SignalChem E10-122BG
# experimental_details: Biochemical EGFR inhibition assay (Caliper mobility shift), EGFR L858R
# experimental_context: read-out: Enz EGFR_L858R IC50
property_measured: IC50

Query (compound): `C[C@H](CN(C)C)Oc1cc(-c2cnn(C)c2)cc2ncnc(Nc3ccc4nccnc4c3F)c12` ; field requested: IC50
> 50.1 nM

Subsequent entry: `C[C@H](CN(C)C)Oc1cc(N2CC(C)(O)C2)cc2ncnc(Nc3ccc4ncccc4c3F)c12`
10.1 to 50 nM

Quick one: `C[C@H](CN(C)C)Oc1cc(-c2cn[nH]c2)cc2ncnc(Nc3ccc4ncccc4c3F)c12`
< 10 nM

Same question, `C[C@H](CN(C)C)Oc1cc(N2CCCC2=O)cc2ncnc(Nc3ccc4ncccc4c3F)c12` this time
10.1 to 50 nM

Repeat for the following compound: `CN1CCC[C@H](Oc2cc(-c3cnn(C)c3)cc3ncnc(Nc4ccc5ncccc5c4F)c23)C1`
< 10 nM

Try this compound too: `C[C@H](CN(C)C)Oc1nc(N2CC[C@H](C(C)(C)O)C2)cc2ncnc(Nc3ccc4ncccc4c3F)c12`
10.1 to 50 nM

Can you check `C[C@@H](Oc1cc(-c2cnn(C)c2)cc2ncnc(Nc3cc(F)c4ncccc4c3F)c12)C1COC1` next?
< 10 nM

Record: `C[C@H](CN(C)C)Oc1cc(N2CCCS2(=O)=O)cc2ncnc(Nc3ccc4ncccc4c3F)c12`
10.1 to 50 nM

Try `C[C@H](CN(C)C)Oc1cc(N2CCS(=O)(=O)CC2)cc2ncnc(Nc3ccc4ncccc4c3F)c12` next.
> 50.1 nM

Cool, now `CCNC[C@@H](C)Oc1cc(-c2cnn(C)c2)cc2ncnc(Nc3ccc4ncccc4c3F)c12`
10.1 to 50 nM

Would you kindly repeat that for CO[C@H]1CCN(c2cc3ncnc(Nc4ccc5ncccc5c4F)c3c(OC(C)CN(C)C)n2)C1 (stereo in doubt) ?
10.1 to 50 nM

One more compound: `CN1CCC(Oc2cc(-c3cnn(CC(F)F)c3)cc3ncnc(Nc4ccc5ncccc5c4F)c23)CC1`
< 10 nM

Request: `Cc1ccc2cc(Nc3ncnc4cc(-c5cnn(C)c5)cc(O[C@H](C)CN(C)C)c34)ccc2n1`
10.1 to 50 nM

Item: C[C@H](CN(C)C)Oc1cc(-c2cnn(C)c2)cc2ncnc(Nc3ccc4c(ccc[n+]4[O-])c3F)c12 (single isomer, unassigned)
10.1 to 50 nM

Now this one: `C[C@H](CN(C)C)Oc1cc(-c2cnn(C)c2)cc2ncnc(Nc3ccc4nccnc4c3)c12`
10.1 to 50 nM
